Biological target: Oxysterols receptor LXR-alpha (Homo sapiens, UniProt Q13133)
Sequence (Q13133 whole entry): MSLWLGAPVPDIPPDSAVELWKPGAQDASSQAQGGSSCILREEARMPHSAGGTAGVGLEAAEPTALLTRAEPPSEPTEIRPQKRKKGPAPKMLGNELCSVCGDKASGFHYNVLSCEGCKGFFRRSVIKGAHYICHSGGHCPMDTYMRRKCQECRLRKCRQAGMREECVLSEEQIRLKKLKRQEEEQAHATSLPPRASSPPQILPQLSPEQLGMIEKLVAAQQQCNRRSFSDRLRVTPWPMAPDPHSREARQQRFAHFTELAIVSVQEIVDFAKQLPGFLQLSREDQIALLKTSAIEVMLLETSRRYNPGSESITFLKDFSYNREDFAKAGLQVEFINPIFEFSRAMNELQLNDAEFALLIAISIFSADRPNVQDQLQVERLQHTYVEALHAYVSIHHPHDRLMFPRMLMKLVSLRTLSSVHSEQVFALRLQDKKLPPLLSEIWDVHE
Assay: Agonist activity at GST tagged LXRalpha (unknown origin) using SRC1 as coactivator peptide incubated for 1 hr by coactivator recruitment based TR-FRET assay
measuredAttribute: EC50 (µM)

[I] CCOC(=O)c1cccc(NC(=O)c2sccc2S(=O)(=O)N(C)c2ccc(OCC)c(OCC)c2)c1
[II] CCOC(=O)c1cccc(NC(=O)c2sc(Cl)cc2S(=O)(=O)N(C)c2ccc(N(C)C)cc2)c1
Could you check which of I and II has a smaller value for EC50? I would appreciate it if you answered with the label of your choice.
I
(I: 3.5 µM, II: 11 µM)

---

Target: UniProt Q13133
Assay: Agonist activity at GST tagged LXRalpha (unknown origin) using SRC1 as coactivator peptide incubated for 1 hr by coactivator recruitment based TR-FRET assay
pEC50: −log10 of the molar value.
measuredAttribute: pEC50

[1] CCOC(=O)c1cccc(NC(=O)c2sc(Cl)cc2S(=O)(=O)N(C)c2ccc(OCC)c(OC)c2)c1
[2] CCOC(=O)c1cccc(NC(=O)c2sc(Cl)cc2S(=O)(=O)N(C)c2ccc(OCC)cc2)c1
# min-compare on pEC50 between 1 and 2 Provide the label of your selected option as the answer.
2

[A] CCOc1ccc(N(C)S(=O)(=O)c2cc(Cl)sc2C(=O)Nc2cc(Cl)cc(C(=O)OCCOCCOC)c2)cc1OC
[B] CCOc1ccc(N(C)S(=O)(=O)c2cc(Cl)sc2C(=O)Nc2cc(Cl)cc(C3OCCO3)c2)cc1OC
Of the two listed items, which has the higher pEC50? First: A Second: B Label of pick, please.
A

---

Target: Oxysterols receptor LXR-beta (Homo sapiens, UniProt P55055)
Sequence (P55055 whole entry): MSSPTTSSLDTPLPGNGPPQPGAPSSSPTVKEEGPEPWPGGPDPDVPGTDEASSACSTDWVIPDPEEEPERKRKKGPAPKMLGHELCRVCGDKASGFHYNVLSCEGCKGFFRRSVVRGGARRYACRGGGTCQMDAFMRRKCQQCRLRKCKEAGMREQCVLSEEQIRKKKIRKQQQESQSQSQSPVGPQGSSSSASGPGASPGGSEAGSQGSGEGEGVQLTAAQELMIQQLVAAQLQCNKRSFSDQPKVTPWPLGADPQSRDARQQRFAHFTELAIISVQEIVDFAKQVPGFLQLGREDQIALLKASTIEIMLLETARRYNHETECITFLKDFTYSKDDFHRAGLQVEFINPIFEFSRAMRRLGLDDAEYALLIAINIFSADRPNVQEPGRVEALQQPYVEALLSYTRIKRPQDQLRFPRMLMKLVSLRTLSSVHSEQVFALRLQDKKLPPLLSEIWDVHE
Assay: Agonist activity at GST tagged LXRbeta (unknown origin) using SRC1 as coactivator peptide incubated for 1 hr by coactivator recruitment based TR-FRET assay
measuredAttribute: EC50 (µM)

Here are 4 compounds together with their reported answers.
structureString: CCOc1ccc(N(C)S(=O)(=O)c2cc(Cl)sc2C(=O)Nc2cccc(C(=O)OCCOC)c2)cc1OCC
measuredAttribute: EC50
number: 15
//
structureString: CCOC(=O)c1cccc(NC(=O)c2sc(Cl)cc2S(=O)(=O)N(C)c2ccc(OCC)cc2)c1
measuredAttribute: EC50
number: 13
//
structureString: CCOc1ccc(N(C)S(=O)(=O)c2cc(Cl)sc2C(=O)Nc2cc(Cl)cc(C(=O)OCCOC)c2)cc1OC
measuredAttribute: EC50
number: 0.58
//
structureString: CCCOc1ccc(N(C)S(=O)(=O)c2ccsc2C(=O)Nc2cccc(C(=O)OCC)c2)cc1
measuredAttribute: EC50
number: 11

[P] CCOC(=O)c1cccc(NC(=O)c2sccc2S(=O)(=O)N(C)c2ccc(OCC)c(OCC)c2)c1
[Q] CCOc1ccc(N(C)S(=O)(=O)c2cc(Cl)sc2C(=O)Nc2cc(Cl)cc(C3OCCO3)c2)cc1OC
Pick the one with the larger EC50: P vs Q Could you answer with the label of the item you picked?
Q
